Task for the reader: assign each of the following binders its reported signal vs NO COMP=100.
target_desc: T1, human CD115 extracellular domain (Sino Biological 10161-H08H) (human, UniProt P07333 20-517)
T1 construct: extracellular domain; bought recombinant protein; also called huCD115; hu-CD115
test_description: competition ELISA, competitor TMR 44B;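 further: binding of antibodies from single-clone hybridoma supernatants to huCD115 measured with the competitor antibody present, a drop in signal meaning both share an epitope bin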;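 further: low signal means same epitope bin as the mouse competitor antibody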
Give the value in % but do not write % after it.

Request: Fill blank: measured signal vs NO COMP=100 of the binder CCK-465A (antibody, V domains shown, AlivaMab chimeric IgG, human kappa LC) VH: QVQLQESGPGLVKPSETLSLSCTVSGGSISSYYWSWIRQPAGKGLEWIGRIYTSGSTNYNPSLKSRVTMSVDTSKNQFSLKLSSVTAADTAVYYCARDRSFYGMDVWGQGTTVTVSS VL: DIQMTQSPSSLSASVGDRVTITCRASQGFSNYLAWYQQKPGKVPKLLIYAASTLQSGVPSRFSGSGSGTDFTLTISSLQPEDVATYYCQKYNSAPLTFGGGTKVEIK is ____.
Result: 8

Request: // signal vs NO COMP=100 lookup, key: CCK-421A (antibody, V domains shown, AlivaMab chimeric IgG, human kappa LC) VH: QVQLQESGPGLVKPSETLSLTCTVTGGSISSYYWSWIRQPAGKGLEWIGRIYTSGSTNYNPSLKSRVTMSVDTSKNHFSLKLSSVTAADTAVYYCAREILVVVAATRTGGVFDIWGQGTMVTVSS VL: DIQMTQSPSTLSASVGDRVTITCRASQSISSWLAWYQRKPGKAPKLLIYKASTLESGVPSRFSGSGSGTEFTLTISSLQPDDFATYYCQQFNSYWTFGQGTKVEIK
Result: 55

Request: signal vs NO COMP=100 lookup needed for CCK-525A (antibody, V domains shown, AlivaMab chimeric IgG, human kappa LC) VH: QVQLVESGGGVVQPGRSLRLSCAASGFTFSSYGMHWVRQAPGKGLEWVAVIWYDGSIKYYADSVKGRFTISRDNSKNTLYLQMNSLRAEDTAVYYCARATYYYDSSGYYSNWFDPWGQGTLVTVSS VL: DIQMTQSPSSVSASVGDRVTITCRASQGISSWLAWYQQKPGKAPKLLIYAASSLQSGVPSRFSGSGSGTDFTLTISSLQPEDFATYYCQQANTFPFTVGPGTKVDIK , thanks.
Result: 56

Request: Suppose we examine the binder CCK-464A (antibody, V domains shown, AlivaMab chimeric IgG, human kappa LC) VH: EVQLVESGGGLVKPGGSLRLSCAASGFTFSSYNMNWVRQAPGKGLEWVSSISSSSTYIYYADSLKGRFTISRDNAMNSLYLQMSSLRAEDTAVYYCARDSGTYPYYYFGMDVWGQGTTVTVSS VL: DIQLTQSPSFLSASVGDRVTITCRASQGISSYLAWYQQKPGKAPKLLIYAASTLQSGVPSRFSGSGSGTEFTLTISSLQPEDFATYYCQQLNTYPRTFGQGTKVEIK ; what signal vs NO COMP=100 value has been reported?
Result: 0

Request: Fill blank: measured signal vs NO COMP=100 of the binder CCK-424A (antibody, V domains shown, AlivaMab chimeric IgG, human kappa LC) VH: QVQLQESGPGLVKPSETLSLTCTVSGGSISSYYWSWIRQPPGKVLEWIGYFSYNGNTNYNPSLKSRVTISVDTSKNQFSLKLSSVTAADTAVYYCTRGMDVWGQGTTVTVSS VL: DIQMTQSPSTLSASVGDRVTITCRASQSISDWLAWYLQKPGKAPKLLIYKASSLESGVPSRFSGSGSGTAFTLTISSLQPDDFATYYCQQYNSHWTFGQGTKVEIK is ____.
Result: 53
